target: mutant MGL (Homo sapiens, UniProt Q99685, L169S/L176S); assay: MGL ThermoFluor assay - mutant; type: binding; conditions: ThermoFluor concentration-response, read-out: MGL mutant ThermoFluor Kd
pKd: −log10 of the molar value.
READOUT_LABEL: pKd

compound="O=C(c1cc2cc(C(F)(F)F)ccc2[nH]1)N1CCN(C2CN(C(=O)c3nccs3)C2)CC1 [Cpd 747]" readout_label=pKd obs_value=6.95
compound="O=C(c1ccc2c(c1)c(Cl)cn2-c1ccc(F)cc1)N1CC(N2CCN(C(=O)c3nccs3)CC2)C1 [Cpd 1365]" readout_label=pKd obs_value=8.70

(P) Cc1cn(-c2ccc(F)cc2)c2ccc(C(=O)N3CCN(C4CN(C(=O)c5nccs5)C4)CC3)cc12 [Cpd 1089]
(Q) O=C(c1ccccc1)N1CCN(C2CN(C(=O)c3ccc(Sc4cccc(C(F)(F)F)c4)cc3)C2)CC1 [Cpd 430]
Hi, I'm comparing P with Q and wondering which one has the bigger number for pKd. Any idea? Output the label that corresponds to your choice. P

* * *

Biological target: purified wild type MGL (wt-MGLL 6H-11-313) (Homo sapiens)
Sequence (Q99685 1-303): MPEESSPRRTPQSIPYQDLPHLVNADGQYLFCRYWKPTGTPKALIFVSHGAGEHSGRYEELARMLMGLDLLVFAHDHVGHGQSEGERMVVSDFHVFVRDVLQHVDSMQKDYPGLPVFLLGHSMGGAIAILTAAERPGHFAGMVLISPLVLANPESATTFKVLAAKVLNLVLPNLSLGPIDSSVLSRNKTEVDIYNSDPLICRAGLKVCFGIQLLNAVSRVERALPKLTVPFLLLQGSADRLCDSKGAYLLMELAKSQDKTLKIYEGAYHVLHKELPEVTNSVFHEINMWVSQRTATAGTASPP
pIC50: −log10 of the molar value.
READOUT_LABEL: pIC50

compound="O=C(c1ccc2nn(Cc3ccc(F)cc3)cc2c1)N1CC(N2CCN(C(=O)c3nccs3)CC2)C1 [Cpd 1030]" readout_label=pIC50 obs_value=7.89
compound="O=C(c1ccc2c(ccn2-c2ncccn2)c1)N1CC(N2CCN(C(=O)c3nccs3)CC2)C1 [Cpd 1174]" readout_label=pIC50 obs_value=7.18
compound="O=C(c1ccc(-c2ccc(F)cc2)cc1)N1CC(N2CCN(C(=O)c3cscn3)CC2)C1 [Cpd 225]" readout_label=pIC50 obs_value=7.26

(a) O=C(c1ccc2c(ccn2-c2ccc(F)cc2)c1)N1CC(N2CCN(C(=O)c3ccc(Cl)o3)CC2)C1 [Cpd 1425]
(b) O=C(c1cc2cc(Cl)ccc2o1)N1CC(N2CCN(C(=O)c3nccs3)CC2)C1 [Cpd 818]
(c) O=C(c1ccc2c(ccn2-c2ccc(Cl)cn2)c1)N1CC(N2CCN(C(=O)c3cscn3)CC2)C1 [Cpd 1180]
(d) COc1ccc(C(C)(C)C)cc1C(=O)N1CC(N2CCN(C(=O)c3nccs3)CC2)C1 [Cpd 849]
Reorder the items by pIC50, least to greatest. List the labels, following the order given in the request. d, b, c, a
(d: 5.15, b: 5.57, c: 7.12, a: 8.05)

* * *

molecular target: mutant MGL (Homo sapiens, UniProt Q99685, L169S/L176S); experiment: MGL ThermoFluor assay - mutant; format: binding; details: ThermoFluor concentration-response, read-out: MGL mutant ThermoFluor Kd
pKd: −log10 of the molar value.
READOUT_LABEL: pKd

Look over these answered cases.
compound=Cc1c(C(=O)N2CC(N3CCN(C(=O)c4nccs4)CC3)C2)[nH]c2ccc(Cl)cc12 readout_label=pKd obs_value=7.34
compound=Cn1cc(C(=O)N2CC(N3CCN(C(=O)c4nccs4)CC3)C2)c2ccccc21 readout_label=pKd obs_value=6.01
compound=Cc1nc(-c2ccccc2F)sc1C(=O)N1CC(N2CCN(C(=O)c3nccs3)CC2)C1 readout_label=pKd obs_value=7.19

(I) O=C(c1ccc(-c2ccc(C(F)(F)F)s2)cc1)N1CC(N2CCN(C(=O)c3cscn3)CC2)C1
(II) CC1CN(C(=O)c2nccs2)CCN1C1CN(C(=O)c2ccc(Cc3ccccc3)cc2)C1 (stereo not shown)
pKd comparison. Which is larger, I or II ? // caller expects the label of the chosen entry I
(I: 7.60, II: 7.04)

(P) CSc1ccc(C(=O)N2CC(N3CCN(C(=O)c4ccccc4)CC3)C2)cc1
(Q) O=C(/C=C/c1ccc(SC(F)(F)F)cc1)N1CC(N2CCN(C(=O)c3cscn3)CC2)C1
Response body: label of entry with the larger pKd; valid values P , Q . Answer format: the label of the selected item. Q

(I) O=C(c1ccc2[nH]c(-c3ccccc3)nc2c1)N1CCN(C2CN(C(=O)c3nccs3)C2)CC1
(II) O=C(c1ccccc1)N1CCN(C2CN(C(=O)c3ccc4nc(-c5ccccc5)sc4c3)C2)CC1
Between I and II , whose recorded pKd is greater? Lab log: write the label of the selected item as the result. II
(II: 6.30, I: 6.00)

(P) O=C(c1nccs1)N1CCN(C2CN(C(=O)C3CCC(c4ccccc4)CC3)C2)CC1 (stereo not shown)
(Q) O=C(c1cnc(NCc2ccccc2)s1)N1CC(N2CCN(C(=O)c3nccs3)CC2)C1
(R) O=C(c1ccccc1)N1CCN(C2CN(C(=O)c3ccc(Cc4cccc(C(F)(F)F)c4)cc3)C2)CC1
Order by pKd, ascending. As an answer, provide the labels arranged in the order called for. Q, R, P
(Q: 5.96, R: 7.14, P: 7.60)

(I) O=C(c1ccccc1)N1CCN(C2CN(C(=O)c3ccc4c(-c5ccc(C(F)(F)F)cc5)c[nH]c4c3)C2)CC1
(II) O=C(c1ccc(-c2ccccc2)cc1)N1CCN(C2CN(C(=O)c3nccs3)C2)C(c2ccccc2)C1 (stereo not shown)
Hello, I am sorting some records. Could you say if I or II has the smaller pKd value? Could you answer with the label of the item you picked? II
(II: 5.90, I: 7.27)

(I) O=C(c1ccccc1)N1CCN(C2CN(C(=O)c3ccc(-c4ccc(Cl)c(Cl)c4)cc3)C2)CC1
(II) O=C(c1ccccc1)C1CCC(C(=O)N2CC(N3CCN(C(=O)c4cscn4)CC3)C2)CC1 (stereo not shown)
In the pair I and II , the larger recorded pKd belongs to which? Label of pick, please. I

* * *

target: MGL (Rattus norvegicus, UniProt Q8R431); construct: one g rat brain was homogenized using a Polytron homogenizer; from tissue; host or cells: rat brain homogenate; experiment: 2-AG accumulation assay in rat brain homogenate; assay type: biochemical; conditions: rat brain homogenate; compound 1 μM; 2-AG accumulation as percent of vehicle; read-out: Rat Brain 2AG % VehCntrl (%) @ 1 μM
Sequence (Q8R431 whole entry): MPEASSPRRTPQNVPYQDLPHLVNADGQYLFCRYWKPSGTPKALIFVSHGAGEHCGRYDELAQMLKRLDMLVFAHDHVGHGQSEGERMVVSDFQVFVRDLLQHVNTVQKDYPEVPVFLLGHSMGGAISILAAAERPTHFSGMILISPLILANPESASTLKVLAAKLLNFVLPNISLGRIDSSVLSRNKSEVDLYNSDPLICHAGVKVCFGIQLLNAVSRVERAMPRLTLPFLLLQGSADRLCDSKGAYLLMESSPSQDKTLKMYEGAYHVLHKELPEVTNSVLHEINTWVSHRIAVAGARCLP
READOUT_LABEL: 2-AG accumulation, % of vehicle control at 1 µM (%)

Please review the following examples before continuing.
mol=Cc1cc(C(=O)N2CC(N3CCN(C(=O)c4nccs4)CC3)C2)sc1-c1cccc(C(F)(F)F)c1 obs_value=750
mol=O=C(c1ccc2c(c1)ncn2-c1ccc(C(F)(F)F)cc1)N1CC(N2CCN(C(=O)c3nccs3)CC2)C1 obs_value=570
mol=O=C(c1ccc(Oc2cccc(C(F)(F)F)c2)cc1)N1CC(N2CCN(C(=O)c3nccs3)CC2)C1 obs_value=436
mol=O=C(c1cccc(-c2ccccc2C(F)(F)F)c1)N1CC(N2CCN(C(=O)c3cscn3)CC2)C1 obs_value=241
mol=O=C(c1ccc2c(c1)Sc1ccccc1O2)N1CC(N2CCN(C(=O)c3ccc[nH]3)CC2)C1 obs_value=234

(P) CCCCCCCCCCCCCCCC(=O)N1CC(N2CCN(C(=O)c3nccs3)CC2)C1
(Q) O=C(c1ccc(COc2cccc(Cl)c2)cc1)N1CC(N2CCN(C(=O)c3nccs3)CC2)C1
# returns the entry with the larger 2-AG accumulation, % of vehicle control at 1 µM; inputs P and Q Record your answer as the label of the chosen record. Q

(1) O=C(c1ccccc1)N1CCN(C2CN(C(=O)c3ccc(-c4ccccc4)cc3F)C2)CC1
(2) Cc1cccc(-n2ccc3cc(C(=O)N4CC(N5CCN(C(=O)c6nccs6)CC5)C4)ccc32)n1
Pick one: 1 or 2 . Which one has the lower reported 2-AG accumulation, % of vehicle control at 1 µM? Selection: enter the item's label. 1
(1: 87%, 2: 850%)

(I) O=C(c1ccc2c(ccn2-c2ccc(C(F)(F)F)cc2)c1)N1CCN(C2CN(C(=O)c3nccs3)C2)CC1
(II) Cc1nc(-c2ccc(F)cc2)sc1C(=O)N1CC(N2CCN(C(=O)c3nccs3)CC2)C1
(III) O=C(c1ccc(Sc2cccc(Cl)c2)cc1)N1CC(N2CCN(C(=O)C(F)(F)F)CC2)C1
Hey, quick one: sort these by 2-AG accumulation, % of vehicle control at 1 µM, top value first please. Return value: ordered labels per request. I, II, III

(1) O=C(c1nccs1)N1CCN(C2CN(C(=O)c3sc4ccc(-c5ccc(C(F)(F)F)cc5)cc4c3F)C2)CC1
(2) O=C(c1ccccc1)N1CCN(C2CN(C(=O)c3ccc(-c4ccc(C(F)(F)F)cc4)s3)C2)CC1
Could you please tell me which of these two has the higher 2-AG accumulation, % of vehicle control at 1 µM: 1 or 2 ? Your choice should be expressed through its label. 1
(1: 838%, 2: 125%)
